# Tested on: ABL or ARG
# PROTOCOL_TEXT: Probe-based (AX9989) kinase profiling in Jurkat lysate: ABL or ARG
# Type: binding
# CONDITION_CONTEXT: screening concentration 1 μM
OBSERVATION_TYPE: ABL or ARG Inhibition % at indicated screening concentration

I'd like to know its ABL or ARG Inhibition % at indicated screening concentration. The compound in question is [2H]C([2H])([2H])N1C(=O)c2ccccc2N(C([2H])([2H])[2H])c2cc(Nc3ccc(C(=O)N4CCN(C(C)=O)CC4)cc3OCC)ncc21 [Compound T77]
E (E is ≦35%)

Proceed to CCOc1cc(C(=O)N[C@H]2CC[C@@H](O)CC2)ccc1Nc1cc2c(cn1)N(C)C(=O)c1ccccc1N2C [Compound T63]
E (E is ≦35%)

Same lookup for CN1CCN([C@@H]2CCN(C(=O)c3ccc(Nc4cc5c(cn4)N(C)C(=O)c4ccccc4N5C)c(F)c3)C2)CC1 [Compound T69] , please.
E (E is ≦35%)
